This collection of values is drawn from ChEMBL document CHEMBL5344428.

- method: Selectivity index, ratio of CC50 for cytotoxicity against human MT4 cells to EC50 for antiviral activity against HIV2 ROD infected in human MT4 cells
- Assay type: toxicity, cell-based
- condition-context: read-out: Ratio CC50/EC50
Measured selectivity ratio by item
Please give only the number in your answer, with no unit.

See these solved cases before continuing.
COc1ccc(N(C)C(=O)[C@H](Cc2cc(F)cc(F)c2)NC(=O)CN2CCN(C(=O)c3ccc(NC(C)=O)cc3)CC2=O)cc1 1.02
COC(=O)c1ccc(C(=O)Nc2ccn(CC(=O)N[C@@H](Cc3ccccc3)C(=O)N(C)c3ccc(OC)cc3)c(=O)c2)cc1 6.31

Turning now to a further compound:
Query block: Find the recorded selectivity ratio belonging to `COc1ccc(N(C)C(=O)[C@H](Cc2ccccc2)NC(=O)Cn2ccc(NC(=O)c3ccc(N)cc3)cc2=O)cc1` and report it.
Result block: 11

###

- method: Selectivity index, ratio of CC50 for cytotoxicity against human MT4 cells to EC50 for antiviral activity against HIV1 IIIB infected in human MT4 cells
- Format: toxicity, cell-based
- condition-context: read-out: Ratio CC50/EC50
Short version: selectivity ratio at least 5 is y, less is n.

Example cases with answers are listed next.
COc1ccc(-n2c(SCCS(C)(=O)=O)nnc2[C@H](Cc2ccccc2)NC(=O)Cc2c(C)[nH]c3ccccc23)cc1 y
COc1ccc(N(C)C(=O)[C@H](Cc2ccccc2)NC(=O)CN2CCN(C(=O)Cc3c(C)[nH]c4ccccc34)CC2=O)cc1 y
COc1ccc(N(C)C(=O)[C@H](Cc2ccccc2)NC(=O)Cn2ccc(NC(=O)c3ccccc3F)cc2=O)cc1 n
COc1ccc(N(C)C(=O)[C@H](Cc2cc(F)cc(F)c2)NC(=O)CN2CCN(S(=O)(=O)c3ccccc3F)CC2)cc1 y

Here is another molecule to look at.
Query block: Check the entry `COc1ccc(N(C)C(=O)[C@H](Cc2ccccc2)NC(=O)CN2CCN(C(=O)Cc3c[nH]c4ccc(F)cc34)CC2=O)cc1` : does selectivity ratio equal or exceed 5?
Result block: n

###

- method: Selectivity index, ratio of CC50 for cytotoxicity against human MT4 cells to EC50 for antiviral activity against HIV2 ROD infected in human MT4 cells
- Format: toxicity, cell-based
- condition-context: read-out: Ratio CC50/EC50
Measured selectivity ratio by item
Please give only the number in your answer, with no unit.

See these solved cases before continuing.
COc1ccc(-n2c(S)nnc2[C@H](Cc2ccccc2)NC(=O)Cc2c(C)[nH]c3ccccc23)cc1 13
COc1ccc(-n2c(SCc3ccc(S(C)(=O)=O)cc3)nnc2[C@H](Cc2ccccc2)NC(=O)Cc2c(C)[nH]c3ccccc23)cc1 22
COc1ccc(N(C)C(=O)[C@H](Cc2cc(F)cc(F)c2)NC(=O)CN2CCN(C(=O)Cc3c(C)[nH]c4ccccc34)CC2=O)cc1 3.91

Query block: Find the recorded selectivity ratio belonging to `COc1ccc(-n2c(SCc3ccncc3)nnc2[C@H](Cc2ccccc2)NC(=O)Cc2c(C)[nH]c3ccccc23)cc1` and report it.
Result block: 6

Query block: Find the recorded selectivity ratio belonging to `COc1ccc(N(C)C(=O)[C@H](Cc2ccccc2)NC(=O)Cn2ccc(NC(=O)c3ccc(C)cc3)cc2=O)cc1` and report it.
Result block: 2.85

###

- method: Selectivity index, ratio of CC50 for cytotoxicity against human MT4 cells to EC50 for antiviral activity against HIV1 IIIB infected in human MT4 cells
- Format: toxicity, cell-based
- condition-context: read-out: Ratio CC50/EC50
Measured selectivity ratio by item
Please give only the number in your answer, with no unit.

Query block: Find the recorded selectivity ratio belonging to `COc1ccc(N(C)C(=O)[C@H](Cc2cc(F)cc(F)c2)NC(=O)CN2CCN(S(=O)(=O)c3ccccc3N)CC2)cc1` and report it.
Result block: 122

###

- method: Cytotoxicity against human MT4 cells assessed as reduction in cell viability incubated for 5 days by MTT assay
- Format: toxicity, cell-based
- condition-context: MT4 cells, time 5 day
recorded-metric: CC50 at 120 h (µM)
The figure you give is taken to be in µM; do not add the unit.

See these solved cases before continuing.
COc1ccc(N(C)C(=O)[C@H](Cc2cc(F)cc(F)c2)NC(=O)CN(Cc2ccc(F)cc2)C(=O)Cc2ccc(B3OC(C)(C)C(C)(C)O3)cc2)cc1 65.4
COc1ccc(N(C)C(=O)[C@H](Cc2ccccc2)NC(=O)CN2CCN(C(=O)Cc3c[nH]c4ccc(F)cc34)CC2=O)cc1 90.1
COc1ccc(-n2c(SCCC3OCCCO3)nnc2[C@H](Cc2ccccc2)NC(=O)Cc2c(C)[nH]c3ccccc23)cc1 32.3

Query block: Find the recorded CC50 at 120 h belonging to `COc1ccc(-n2c(SCc3ccc(S(C)(=O)=O)cc3)nnc2[C@H](Cc2ccccc2)NC(=O)Cc2c(C)[nH]c3ccccc23)cc1` and report it.
Result block: 172

Query block: Find the recorded CC50 at 120 h belonging to `COC(=O)C(C)(C)Sc1nnc([C@H](Cc2ccccc2)NC(=O)Cc2c(C)[nH]c3ccccc23)n1-c1ccc(OC)cc1` and report it.
Result block: 22.6

###

Measured Ratio EC50 by item
- method: Selectivity ratio of EC50 for antiviral activity against HIV1 IIIB infected in human MT4 cells to EC50 for antiviral activity against HIV2 ROD infected in human MT4 cells
- Assay type: toxicity, cell-based
Please give only the number in your answer, with no unit.

See these solved cases before continuing.
COc1ccc(N(C)C(=O)[C@H](Cc2cc(F)cc(F)c2)NC(=O)CN2CCN(S(=O)(=O)c3ccc(Cl)cc3)CC2)cc1 2.11
COc1ccc(-n2c(SCc3cncs3)nnc2[C@H](Cc2ccccc2)NC(=O)Cc2c(C)[nH]c3ccccc23)cc1 0.23
COc1ccc(N(C)C(=O)[C@H](Cc2ccccc2)NC(=O)CN2CCN(C(=O)Cc3c[nH]c4ccc(O)cc34)CC2=O)cc1 1.06

Query block: Find the recorded Ratio EC50 belonging to `COc1ccc(N(C)C(=O)[C@H](Cc2ccccc2)NC(=O)CN2CCN(C(=O)Cc3c[nH]c4ccc(F)cc34)CC2=O)cc1` and report it.
Result block: 4.83

Query block: Find the recorded Ratio EC50 belonging to `COc1ccc(N(C)C(=O)[C@H](Cc2ccccc2)NC(=O)Cn2ccc(NC(=O)c3ccc(C#N)cc3)cc2=O)cc1` and report it.
Result block: 0.94

###

Measured EC50 by item
- Tested on: Human immunodeficiency virus 1
- method: Antiviral activity against HIV1 IIIB infected in human MT4 cells assessed as reduction in virus induced cytopathic effect measured after 5 days by MTT assay
- Format: functional, organism-based
- condition-context: Human immunodeficiency virus 1, IIIB, MT4, 120 h

COc1ccc(-n2c([C@H](Cc3ccccc3)NC(=O)CN3CCN(S(=O)(=O)c4ccc(N)cc4)CC3)nc3ccccc3c2=O)cc1 0.64 µM
COC(=O)CSc1nnc([C@H](Cc2ccccc2)NC(=O)Cc2c(C)[nH]c3ccccc23)n1-c1ccc(OC)cc1 3.01 µM
COc1ccc(N(C)C(=O)[C@H](Cc2ccccc2)NC(=O)CN2CCN(C(=O)Cc3c[nH]c4ccccc34)CC2=O)cc1 15 µM

Turning now to a further compound:
Query block: Find the recorded EC50 belonging to `COc1ccc(N(C)C(=O)[C@H](Cc2cc(F)cc(F)c2)NC(=O)CN2CCN(C(=O)Cc3c[nH]c4ccc(Br)cc34)CC2=O)cc1` and report it.
Result block: > 3.15 µM

###

- method: Selectivity ratio of EC50 for antiviral activity against HIV1 IIIB infected in human MT4 cells to EC50 for antiviral activity against HIV2 ROD infected in human MT4 cells
- Assay type: toxicity, cell-based
Measured Ratio EC50 by item
Please give only the number in your answer, with no unit.

See these solved cases before continuing.
COc1ccc(-n2c([C@H](Cc3cc(F)cc(F)c3)NC(=O)CN3CCN(S(=O)(=O)c4ccc([N+](=O)[O-])cc4)CC3)nc3cc(F)ccc3c2=O)cc1 1.4
COc1ccc(-n2c([C@H](Cc3ccccc3)NC(=O)CN3CCN(S(=O)(=O)c4ccc([N+](=O)[O-])cc4)CC3=O)nc3ccccc3c2=O)cc1 2.65
COc1ccc(N(C)C(=O)[C@H](Cc2ccccc2)NC(=O)CN2CCN(C(=O)Cc3c[nH]c4ccccc34)CC2=O)cc1 3.06
COc1ccc(N(C)C(=O)[C@H](Cc2ccccc2)NC(=O)CN2CCN(C(=O)c3ccc(NC(C)=O)cc3)CC2=O)cc1 1.1

Query block: Find the recorded Ratio EC50 belonging to `COc1ccc(-n2c(S)nnc2[C@H](Cc2ccccc2)NC(=O)Cc2c(C)[nH]c3ccccc23)cc1` and report it.
Result block: 0.47

Query block: Find the recorded Ratio EC50 belonging to `COc1ccc(N(C)C(=O)[C@H](Cc2cc(F)cc(F)c2)NC(=O)CN2CCN(C(=O)c3ccc(NC(C)=O)cc3)CC2=O)cc1` and report it.
Result block: 0.92

###

- method: Selectivity index, ratio of CC50 for cytotoxicity against human MT4 cells to EC50 for antiviral activity against HIV1 IIIB infected in human MT4 cells
- Type: toxicity, cell-based
- condition-context: read-out: Ratio CC50/EC50
recorded-metric: selectivity ratio
Please give only the number in your answer, with no unit.

COc1ccc(-n2c(SCCC3OCCCO3)nnc2[C@H](Cc2ccccc2)NC(=O)Cc2c(C)[nH]c3ccccc23)cc1 20

Turning now to a further compound:
Query block: Find the recorded selectivity ratio belonging to `COc1ccc(N(C)C(=O)[C@H](Cc2cc(F)cc(F)c2)NC(=O)CN(Cc2ccc(C#N)cc2)C(=O)Cc2c[nH]c3ccc(Br)cc23)cc1` and report it.
Result block: 16
